- target.or.system: Human AMPK α2β2γ1 (Homo sapiens, UniProt O43741+P54619+P54646)
- Construct: The full length cDNAs of human AMPK β2 (NM_005399.3) and human AMPK α2 (NM_006252.3); The full length cDNAs of human AMPK β2 (NM_005399.3); the full length cDNA of human AMPK γ1 (NM_002733.3); 6xHis (N); made in house; host or cells: Escherichia coli BL21 CodonPlus (DE3)-RIL (AMPK); BL21 Star (DE3) (CaMKK2)
- Sequence (P54646 whole entry): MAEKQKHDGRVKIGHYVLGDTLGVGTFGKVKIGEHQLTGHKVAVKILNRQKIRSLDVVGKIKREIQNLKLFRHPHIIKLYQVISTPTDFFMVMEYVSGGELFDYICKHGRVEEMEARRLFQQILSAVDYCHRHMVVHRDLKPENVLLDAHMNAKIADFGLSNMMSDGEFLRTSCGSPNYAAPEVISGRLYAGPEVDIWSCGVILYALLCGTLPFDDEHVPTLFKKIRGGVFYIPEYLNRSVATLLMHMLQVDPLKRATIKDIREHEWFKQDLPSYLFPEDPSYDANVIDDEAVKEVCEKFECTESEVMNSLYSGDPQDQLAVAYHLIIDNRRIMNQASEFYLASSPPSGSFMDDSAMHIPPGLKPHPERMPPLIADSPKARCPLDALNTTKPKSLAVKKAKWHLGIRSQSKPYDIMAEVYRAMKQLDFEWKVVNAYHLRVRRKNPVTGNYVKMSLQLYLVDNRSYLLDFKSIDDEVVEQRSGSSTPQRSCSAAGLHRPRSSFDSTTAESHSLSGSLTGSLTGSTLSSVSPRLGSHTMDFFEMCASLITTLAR
- Sequence (O43741 whole entry): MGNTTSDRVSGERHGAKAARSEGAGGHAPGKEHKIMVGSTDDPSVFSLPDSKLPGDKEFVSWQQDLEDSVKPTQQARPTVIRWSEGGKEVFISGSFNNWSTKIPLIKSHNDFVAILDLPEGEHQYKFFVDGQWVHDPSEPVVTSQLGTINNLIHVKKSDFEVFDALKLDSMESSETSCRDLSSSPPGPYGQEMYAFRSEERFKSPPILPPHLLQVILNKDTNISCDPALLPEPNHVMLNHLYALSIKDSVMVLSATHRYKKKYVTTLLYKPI
- Sequence (P54619 whole entry): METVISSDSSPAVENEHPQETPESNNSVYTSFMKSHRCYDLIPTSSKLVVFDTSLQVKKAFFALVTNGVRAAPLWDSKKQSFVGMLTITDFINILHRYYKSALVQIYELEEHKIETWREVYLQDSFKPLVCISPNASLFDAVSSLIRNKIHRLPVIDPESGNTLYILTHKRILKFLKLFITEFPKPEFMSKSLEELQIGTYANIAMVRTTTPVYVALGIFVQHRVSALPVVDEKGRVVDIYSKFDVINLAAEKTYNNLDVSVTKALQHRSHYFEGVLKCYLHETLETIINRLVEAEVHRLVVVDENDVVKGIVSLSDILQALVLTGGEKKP
- assay.summary: Test Example 2: AMPK activator evaluation, mobility-shift kinase assay after CaMKK2 phosphorylation
- Assay type: biochemical
- condition.set: maximum rate of increase in activity within the measurement range, control = 100%
reported.metric: Emax (%)
Give bare numbers, in %.

COCCOc1cc(F)c(CSc2nc3nc(O[C@@H]4CO[C@H]5[C@@H]4OC[C@H]5O)[nH]c3cc2Cl)c(F)c1 : 766

Take each entry in turn and give its Emax.
1. Oc1cccc(F)c1CNc1nc2nc(O[C@@H]3CO[C@H]4[C@@H]3OC[C@H]4O)[nH]c2cc1Cl
2. O[C@@H]1CO[C@H]2[C@@H]1OC[C@H]2Oc1nc2nc(NCc3c(F)cc(Cl)cc3F)c(Cl)cc2[nH]1
3. O[C@@H]1CO[C@H]2[C@@H]1OC[C@H]2Oc1nc2nc(NCc3cccs3)c(Cl)cc2[nH]1
4. COCCOc1cc(F)c2c(c1)CCC2Nc1nc2nc(O[C@@H]3CO[C@H]4[C@@H]3OC[C@H]4O)[nH]c2cc1Cl (stereo partly shown)

*A*
1: 588; 2: 750; 3: 407; 4: 568

Take each entry in turn and give its Emax.
1. OCCO[C@@H]1CO[C@H]2[C@@H]1OC[C@H]2Oc1nc2nc(NCc3c(F)cccc3F)c(Cl)cc2[nH]1
2. O[C@@H]1CO[C@H]2[C@@H]1OC[C@H]2Oc1nc2nc(NCc3c(F)cc(OCC4CNCCO4)cc3F)c(Cl)cc2[nH]1 (stereo partly shown)
3. CN(C)CCCc1cc(F)c(CNc2nc3nc(O[C@@H]4CO[C@H]5[C@@H]4OC[C@H]5O)[nH]c3cc2Cl)c(F)c1
4. O=C(Nc1nc2nc(O[C@@H]3CO[C@H]4[C@@H]3OC[C@H]4O)[nH]c2cc1Cl)c1ccc2ccccc2c1
5. O[C@@H]1CO[C@H]2[C@@H]1OC[C@H]2Oc1nc2nc(NC3CCc4ccccc43)c(Cl)cc2[nH]1 (stereo partly shown)
6. CCOCCOc1cc(F)c2c(c1)CCC2Nc1nc2nc(O[C@@H]3CO[C@H]4[C@@H]3OC[C@H]4O)[nH]c2cc1Cl (stereo partly shown)
7. CC(=O)NC(C)(C)c1ccc(Oc2nc3nc(NCc4c(F)cccc4F)c(Cl)cc3[nH]2)cn1
8. O[C@@H]1CO[C@H]2[C@@H]1OC[C@H]2Oc1nc2nc(NCc3c(F)cccc3F)c(C(F)(F)F)cc2[nH]1

*A*
1. 432
2. 581
3. 532
4. 397
5. 617
6. 649
7. 332
8. 480

----------
Please respond with reported EC150 for every item in the list.
- target.or.system: Human AMPK α2β2γ1 (Homo sapiens, UniProt O43741+P54619+P54646)
- Construct: The full length cDNAs of human AMPK β2 (NM_005399.3) and human AMPK α2 (NM_006252.3); The full length cDNAs of human AMPK β2 (NM_005399.3); the full length cDNA of human AMPK γ1 (NM_002733.3); 6xHis (N); made in house; host or cells: Escherichia coli BL21 CodonPlus (DE3)-RIL (AMPK); BL21 Star (DE3) (CaMKK2)
- assay.summary: Test Example 2: AMPK activator evaluation, mobility-shift kinase assay after CaMKK2 phosphorylation
- Format: biochemical
- condition.set: compound concentration showing 150% relative to the control (100%)

Worked examples, 2 molecules total:
O[C@@H]1CO[C@H]2[C@@H]1OC[C@H]2Oc1nc2nc(NC3CCc4cccnc43)c(Cl)cc2[nH]1 (stereo partly drawn) : 94 nM
O[C@@H]1CO[C@H]2[C@@H]1OC[C@H]2Oc1nc2nc(NC3COc4ccccc43)c(Cl)cc2[nH]1 (stereo partly drawn) : 170 nM

Now take the following molecule into account.
*Q* // map OCCCOc1cc(F)c(CNc2nc3nc(O[C@@H]4CO[C@H]5[C@@H]4OC[C@H]5O)[nH]c3cc2Cl)c(F)c1 to recorded EC150 (system: Human AMPK α2β2γ1 (Homo sapiens, UniProt O43741+P54619+P54646))
*A* 16 nM
